// data source = the supplement of paper PMC9112550

System: Escherichia coli TOP10
Experiment: shrunken log2 fold change of peptide-encoding DNA abundance (4.5 h post-induction vs induction); higher = less antimicrobial activity (less host growth inhibition)
Conditions: time post-induction: 4.5 h; library: site-saturation at positions 5, 18, 19, 20
shrunken log2 fold change values for the sequences below.
Number only, please.

// below: answered sequences
# sequence_code, shrunken log2 fold change
data = [
    ("RRIRMRPPRLPRPRPRPWVKPRP", -0.00556),
    ("RRIRSRPPRLPRPRPRPHDCPRP", -0.0708),
    ("RRIRERPPRLPRPRPRPLTTPRP", -0.395),
    ("RRIRHRPPRLPRPRPRPDEPPRP", 0.197),
    ("RRIRGRPPRLPRPRPRPCEWPRP", -0.01),
    ("RRIRSRPPRLPRPRPRPYIDPRP", -0.071),
]

Note: attention shifts to another entry.
Query :: For RRIRWRPPRLPRPRPRPSLFPRP , what is its reported shrunken log2 fold change?
Result :: 0.114

* * *

shrunken log2 fold change values for the sequences below.
Test system: Escherichia coli TOP10
Assay: shrunken log2 fold change of peptide-encoding DNA abundance (4.5 h post-induction vs induction); higher = less antimicrobial activity (less host growth inhibition)
Conditions: time post-induction: 4.5 h; library: site-saturation at positions 5, 18, 19, 20
Number only, please.

// below: answered sequences
# sequence_code, shrunken log2 fold change
records = [
    ("RRIRLRPPRLPRPRPRPRYIPRP", -0.683),
    ("RRIRYRPPRLPRPRPRPVQKPRP", 0.0112),
    ("RRIRKRPPRLPRPRPRPPFTPRP", 0.243),
    ("RRIRSRPPRLPRPRPRPIEEPRP", 0.0156),
    ("RRIRNRPPRLPRPRPRPQDEPRP", 0.00847),
    ("RRIRHRPPRLPRPRPRPNCRPRP", -0.0986),
    ("RRIRKRPPRLPRPRPRPRNIPRP", -0.116),
    ("RRIRGRPPRLPRPRPRPKPYPRP", 0.332),
    ("RRIRERPPRLPRPRPRPIDGPRP", 0.0442),
    ("RRIRTRPPRLPRPRPRPMDWPRP", -0.05),
]

Query :: For RRIRPRPPRLPRPRPRPDEGPRP , what is its reported shrunken log2 fold change?
Result :: -0.188

Query :: Lookup RRIRYRPPRLPRPRPRPAELPRP
Result :: -0.187

Query :: Lookup RRIRVRPPRLPRPRPRPQQVPRP
Result :: -0.0278

Query :: Lookup RRIRTRPPRLPRPRPRPKVFPRP
Result :: -0.0334

Query :: Lookup RRIRRRPPRLPRPRPRPMMKPRP
Result :: 0.324

* * *

Tested on: Escherichia coli TOP10
Assay: shrunken log2 fold change of peptide-encoding DNA abundance (4.5 h post-induction vs induction); higher = less antimicrobial activity (less host growth inhibition)
Settings: time post-induction: 4.5 h; library: site-saturation at positions 5, 18, 19, 20
shrunken log2 fold change values for the sequences below.

# sequence_code, shrunken log2 fold change
measured = [
    ("RRIRQRPPRLPRPRPRPKNAPRP", 0.0178),
    ("RRIRLRPPRLPRPRPRPPMAPRP", 0.0265),
    ("RRIRKRPPRLPRPRPRPYPIPRP", 0.11),
    ("RRIRQRPPRLPRPRPRPGMRPRP", 0.941),
    ("RRIRARPPRLPRPRPRPRNYPRP", 0.0668),
]

Query :: For RRIRCRPPRLPRPRPRPHPVPRP , what is its reported shrunken log2 fold change?
Result :: -0.207

Query :: Lookup RRIRRRPPRLPRPRPRPSSSPRP
Result :: 0.133

* * *

Test system: Escherichia coli TOP10
Test: shrunken log2 fold change of peptide-encoding DNA abundance (4.5 h post-induction vs induction); higher = less antimicrobial activity (less host growth inhibition)
Conditions: time post-induction: 4.5 h; library: site-saturation at positions 5, 18, 19, 20
value_type: shrunken log2 fold change
Number only, please.

// below: answered sequences
# sequence_code, shrunken log2 fold change
data = [
    ("RRIRKRPPRLPRPRPRPLYEPRP", 0.0468),
    ("RRIRRRPPRLPRPRPRPVQYPRP", -0.00909),
    ("RRIRKRPPRLPRPRPRPEMFPRP", 0.0732),
    ("RRIRKRPPRLPRPRPRPKIGPRP", 0.295),
    ("RRIRTRPPRLPRPRPRPWLAPRP", 0.216),
    ("RRIRVRPPRLPRPRPRPVVMPRP", -0.271),
    ("RRIRERPPRLPRPRPRPHPLPRP", -0.0971),
    ("RRIRSRPPRLPRPRPRPGGNPRP", 0.163),
    ("RRIRARPPRLPRPRPRPDEHPRP", 0.54),
    ("RRIRCRPPRLPRPRPRPVNMPRP", -0.179),
]

Query :: For RRIRRRPPRLPRPRPRPGTLPRP , what is its reported shrunken log2 fold change?
Result :: -0.0513

Query :: Lookup RRIRQRPPRLPRPRPRPTQTPRP
Result :: -0.00783

Query :: Lookup RRIRQRPPRLPRPRPRPTCGPRP
Result :: 0.285

Query :: Lookup RRIRGRPPRLPRPRPRPIPMPRP
Result :: 0.372

* * *

Test system: Escherichia coli TOP10
Test: shrunken log2 fold change of peptide-encoding DNA abundance (4.5 h post-induction vs induction); higher = less antimicrobial activity (less host growth inhibition)
Conditions: time post-induction: 4.5 h; library: site-saturation at positions 5, 18, 19, 20
value_type: shrunken log2 fold change
Number only, please.

// below: answered sequences
# sequence_code, assay_system, value_observed
records = [
    ("RRIRKRPPRLPRPRPRPTKVPRP", "Escherichia coli TOP10", 1.21),
    ("RRIRWRPPRLPRPRPRPEEVPRP", "Escherichia coli TOP10", -0.0142),
    ("RRIRLRPPRLPRPRPRPLHTPRP", "Escherichia coli TOP10", -0.289),
    ("RRIRYRPPRLPRPRPRPKGIPRP", "Escherichia coli TOP10", -0.228),
]

Query :: For RRIRPRPPRLPRPRPRPECRPRP , what is its reported shrunken log2 fold change?
Result :: 0.56

Query :: Lookup RRIRCRPPRLPRPRPRPFAVPRP
Result :: -0.169

Query :: Lookup RRIRLRPPRLPRPRPRPYSPPRP
Result :: -0.299

Query :: Lookup RRIRHRPPRLPRPRPRPMNFPRP
Result :: -0.0483

Query :: Lookup RRIRQRPPRLPRPRPRPVSAPRP
Result :: 0.104

Query :: Lookup RRIRTRPPRLPRPRPRPGNWPRP
Result :: 0.275

* * *

shrunken log2 fold change values for the sequences below.
Tested on: Escherichia coli TOP10
Test: shrunken log2 fold change of peptide-encoding DNA abundance (4.5 h post-induction vs induction); higher = less antimicrobial activity (less host growth inhibition)
Conditions: time post-induction: 4.5 h; library: site-saturation at positions 5, 18, 19, 20
Number only, please.

// below: answered sequences
# sequence_code, shrunken log2 fold change
measured = [
    ("RRIRLRPPRLPRPRPRPMLDPRP", 0.014),
    ("RRIRARPPRLPRPRPRPVWYPRP", -0.395),
]

Query :: For RRIRWRPPRLPRPRPRPSAFPRP , what is its reported shrunken log2 fold change?
Result :: 0.0981

Query :: Lookup RRIRHRPPRLPRPRPRPCWTPRP
Result :: -0.237

Query :: Lookup RRIRLRPPRLPRPRPRPSVVPRP
Result :: -0.196

* * *

System: Escherichia coli TOP10;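 note: peptides expressed intracellularly from a pBAD plasmid library in pooled LB shake-flask culture, induced with 0.3% L-arabinose, DNA abundance read by NGS, three biological replicates, DESeq2 with apeglm shrinkage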
Assay: shrunken log2 fold change of peptide-encoding DNA abundance (4.5 h post-induction vs induction); higher = less antimicrobial activity (less host growth inhibition)
Conditions: time post-induction: 4.5 h; library: site-saturation at positions 5, 18, 19, 20
Classification field: enter 1 (yes) for shrunken log2 fold change values not below 0.1, 0 (no) for values below it.

Query :: Is shrunken log2 fold change at least 0.1? Consider RRIRRRPPRLPRPRPRPPTRPRP
Result :: 1 (yes)

Query :: Lookup RRIRMRPPRLPRPRPRPFPLPRP
Result :: 0 (no)

Query :: Lookup RRIRYRPPRLPRPRPRPRHQPRP
Result :: 0 (no)

Query :: Lookup RRIRTRPPRLPRPRPRPSRFPRP
Result :: 1 (yes)

Query :: Lookup RRIRTRPPRLPRPRPRPTPCPRP
Result :: 1 (yes)

Query :: Lookup RRIRWRPPRLPRPRPRPNYRPRP
Result :: 0 (no)

Query :: Lookup RRIRSRPPRLPRPRPRPKIVPRP
Result :: 0 (no)
